target: DNA gyrase (Escherichia coli, UniProt P0AES4+P0AES6); test: Inhibition of Escherichia coli DNA gyrase supercoiling activity incubated for 30 mins in presence of spermidine/ATP by fluorescence based analysis
Give pIC50 for every item shown.
Hey, just a heads up that pIC50 is the negative log base 10 of the concentration in molar.

stdin: For the compound O=C(O)C(=O)Nc1ccc2nc(N(Cc3ccccc3)C(=O)c3cc(Br)c(Br)[nH]3)sc2c1 , give its reported pIC50.
stdout: 7.72

stdin: For the compound O=C(O)C(=O)Nc1ccc2c(c1)s/c(=N\C(=O)c1cc(Br)c(Br)[nH]1)n2Cc1ccccc1 , give its reported pIC50.
stdout: 6.87

stdin: For the compound O=C(O)C(=O)Nc1ccc2nc(N(Cc3cccc(C(=O)O)c3)C(=O)c3cc(Br)c(Br)[nH]3)sc2c1 , give its reported pIC50.
stdout: 7.02
